# Test System: T1, cPD-L1-His (Acro Biosystems, PD1-C52H4) (cynomolgus, UniProt Q9NZQ7 19-238 (human entry))
# T1 construct: bought; also called Cyno PD-L1-His; Cynomolgus PD-L1-His; not shown: His tag of the bought product
# T1 sequence (Q9NZQ7 other isoform, or with tags, fused parts or gaps): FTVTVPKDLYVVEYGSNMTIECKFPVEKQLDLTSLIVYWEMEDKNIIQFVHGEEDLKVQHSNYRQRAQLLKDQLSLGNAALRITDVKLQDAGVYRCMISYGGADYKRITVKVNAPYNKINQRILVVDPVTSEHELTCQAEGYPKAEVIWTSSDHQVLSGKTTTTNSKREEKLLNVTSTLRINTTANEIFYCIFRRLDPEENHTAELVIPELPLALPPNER
# Assay Details: SPR, antibody captured on Protein A chip, antigen in flow
Metric: Kd (nM)
Just the number please, in nM, no unit attached.

Known Kd results, listed for orientation:
Binder: G1-AA/E05v2 (antibody, human IgG1, kappa, L234A L235A, V domains shown, anti-PD-L1 IgG1 with LALA) VH: EVQLVQSGAEVKRPGASVKVSCKASGYTFTSYGISWVRQAPGQGLEWMGWISAYSGGTNYAQKLQGRVTMTTDTSTSTAYMELRSLRSDDTAVYYCARDLFPTIFGVSYYYYWGQGTLVTVSS VL: DIQMTQSPSTLSASVGDRVTITCRASQSISGRLAWYQQKPGKAPNLLIYEASNLESGVPSRFSGSGSGTEFTLTISSLQPEDFATYYCQQSYSTPRVTFGQGTKVEIKR
Observed: 0.89

Binder: G1-AA/G12v2 (antibody, human IgG1, kappa, L234A L235A, V domains shown, anti-PD-L1 IgG1 with LALA) VH: EVQLVQSGAEVKRPGASVKVSCKASGYTFTSYGISWVRQAPGQGLEWMGWISAYSGGTNYAQKLQGRVTMTTDTSTSTAYMELRSLRSDDTAVYYCARDLFPTIFGVSYYYYWGQGTLVTVSS VL: DIQMTQSPSTLSASVGDRVTITCRASQSISGRLAWYQQKPGKAPNLLIYEASNLESGVPSRFSGSGSGTEFTLTISSLQPEDFATYYCQQSYSWPRTFGQGTKVEIKR
Observed: 0.75

Binder: G1-AA/E12v2 (antibody, human IgG1, kappa, L234A L235A, V domains shown, anti-PD-L1 IgG1 with LALA) VH: EVQLVQSGAEVKRPGASVKVSCKASGYPFTSYGISWVRQAPGQGLEWMGWISAYSGGTNYAQKLQGRVTMTTDTSTSTAYMELRSLRSDDTAVYYCARDLFPTIFGVSYYYYWGQGTLVTVSS VL: DIQMTQSPSTLSASVRDRVIITCRASQSIGNRLAWYQHKPGKAPKLLIYEASTSETGVPSRFSGSGSGTDFTLTISSLQPEDFATYYCQQSYSTPYTFGQGTKLEIKR
Observed: 0.37

Now for another entry.
For this binder ( G1-AA/lam-G02v3 (antibody, human IgG1, L234A L235A, V domains shown, anti-PD-L1 IgG1 with LALA, lambda light chain; also called G1-AA/lambdav3; G1-AA/Iam-G02v3) VH: EVQLVQSGAEVKRPGASVKVSCKASGYTFTSYGISWVRQAPGQGLEWMGWISAYSGGTNYAQKLQGRVTMTTDTSTSTAYMELRSLRSDDTAVYYCARDLFPTIFGVSYYYYWGQGTLVTVSS VL: QSALTQPASVSGSPGQSITISCTGTSSDVGGYNYVSWYQQFPGKAPKLMIFEVTNRPSGVSDRFSGSKSDNTASLTISGLQAEDEAEYYCSSFKRGSTLVVFG ), measured Kd is 2.45
